Catalogue of sequences with associated apparent KD of MS2 coat protein
Tested on: MS2 coat protein
method: apparent KD of MS2 coat protein; higher = weaker reporter binding
experimental_parameters: Eterna round: R101; input ligand: none
endpoint_label: apparent KD of MS2 coat protein (nM)

INSERT INTO assay_data (residue_sequence, unit_of_measure, test_value) VALUES
  ('GUGGUUGUCGUAGGAUAUGUAGGAUAUUCCUACAUGAGGAUCACCCAUGUUCGCAUGGAAGAAGGACAGAAGGACGAUGACCAG [salish99_SSNG2_011 #endbits investigation] (puzzle (switch architecture): Same State NG 2)', 'nM', 855),
  ('UGUAUUAAUGGAGGAUAUCAAUAUCAAACAUGAGGAUCACCCAUGUUGAGGAUCACCCAUGUCCAUGAGAAGGCUGGCGUACGU [My 19th design] (puzzle (switch architecture): Same State NG 2)', 'nM', 9.37),
  ('AGGAGAAAUGUAGGAUAUAUAUAUAUAUAUGGGCAAAGCGCAUAUAUAUAUAUAGAAGGACAUGAGGAUCACCCAUGUUUCCCU [#Lowering the energy 11] (puzzle (switch architecture): Small Loop Exclusion NG 1)', 'nM', 10.8),
  ('ACACGUCGUGAGAAGGAGGAUCACCCUUUCGAAAGAAAUAGCCACCGUGAAAACGGUGGCAGAUUUUAGGAUAUCACGACGUGA [#SharedSequence - IExNG2: 9] (puzzle (switch architecture): Inverted Exclusion NG 2)', 'nM', 88.3),
  ('AAUAAUUCUCAAGGAUAUGACUCCGAAACGGAGUCAGAAGGUGAGGAUCACCCACCUAGCUCAGCGUCGAAAGACGCUGAGCAA [#SharedSequence ExNG1 - 35] (puzzle (switch architecture): Exclusion NG 1)', 'nM', 18.4),
  ('GCCAUCGCAUGAGGAUAUGCUCCCGUUUCGGGAGCAGAAGGCAUGUCAUAAGACAUGAGGAUCACCCAUGUAGUUAAGAUGGCA (puzzle (switch architecture): Same State NG 1)', 'nM', 285);

###

Catalogue of sequences with associated apparent KD of MS2 coat protein
Test system: MS2 coat protein
method: apparent KD of MS2 coat protein; higher = weaker reporter binding
experimental_parameters: Eterna round: R107; input ligand: tryptophan 2.4 mM
endpoint_label: apparent KD of MS2 coat protein (nM)

INSERT INTO results (residue_sequence, tested_target, endpoint_label, test_value) VALUES
  ('CCCAGUCAUAACAAAGCAAAUAUACUCGAAGGAGCGUCAUAGUAGGCAGGUAGGUCGCGAGACAUGAGGAUCACCCAUGUAGAGA [zrzmullin]', 'MS2 coat protein', 'apparent KD of MS2 coat protein', 35.1),
  ('GUAAUAUACAGAAGGAGCGUGAUAGUGAGCUUGUACAACAUGAGGAUCACCCAUGUAUAAUCACAGGUAGGUCGCUGUAUAGGGU [Arg B SS t2]', 'MS2 coat protein', 'apparent KD of MS2 coat protein', 17.8),
  ('ACUAGAGGUGGAAGGAGCGGGAGACAUGAGGAUCACCCAUGUGAAGUUUCGAGAGGAUCAUCCCAGGUAGGUCGCCAUGUCGAAA [vvbvmullin]', 'MS2 coat protein', 'apparent KD of MS2 coat protein', 43.7),
  ('GGGCAAGGUGCCGCCUUCGCCCACUGAGAAGGAGCGCAGGGUACUGCAGGUAGGUCGCUCAGACAUGAGGAUCACCCAUGUAGGA [Esislees]', 'MS2 coat protein', 'apparent KD of MS2 coat protein', 57.6),
  ('ACAUACAUGAGGAUCACCCAUGUCCAUGUUCGAGGACCGGUACGGCCGCCACUCGCGCGACAGCAUGAGGAACUUGAGGAUCACA [Exclusion Tryptophan A]', 'MS2 coat protein', 'apparent KD of MS2 coat protein', 48.8),
  ('AUAACAUGAGGAUCACCCAUGUAAGCUGAAGGAGCGCUGGAAACAGCAGGUAGGUCGCAGCGGCGACCUUCCUCAUGAAGGUCGC [(M1)-(M2)-(Arg1)-(Arg2)-(A)''-(M)''-(A)''''_Design5]', 'MS2 coat protein', 'apparent KD of MS2 coat protein', 18.5),
  ('GCAUGUUGGUGGUUUCUGCGAAGGCGGAAUCGAGGACCGGUACGGCCGCCACUCGGCGACAUGAGGAUCACCCAUGUGGUUAGGA [Exclusion - Tryptophan A (Freestyle 9)]', 'MS2 coat protein', 'apparent KD of MS2 coat protein', 208),
  ('UGUAUGUGAUCUGAUACCAGCUUUGAUAACCUGAGGAUCACCCUGGUAAAGGCGAAAGCCAGCCCUUGGCAGCAGAUCGCAUACU', 'MS2 coat protein', 'apparent KD of MS2 coat protein', 49.6),
  ('AGCCCUGUACUAGAUACCAGCUACAUGAGGAUCACCCAUGUGCGUCAAGACUGACUGUGUGGCCCUUGGCAGCUGCUCGCAUGUA [Exclusion - Theophylline B (Freestyle 1)]', 'MS2 coat protein', 'apparent KD of MS2 coat protein', 168),
  ('GCAUCCUAGUCGGCCGCCACUGCAACAUGAGGAUCACCCAUGUACUGCACAUGGGAAUGCAGUAGCAGGACCGGGACUAGGAUGC [(T1)-(M1)-(M2)-(T)''''-(M)''-(T)''-(T2)_Design2_2/18/17]', 'MS2 coat protein', 'apparent KD of MS2 coat protein', 48.4),
  ('AAAAUAAAAGGUGCAAAAUCCUAAUGUGAAGGAGCGCACGAAAGUGCAGGUAGGUCGCACAUGAGGAUCACCCAUGUAGCACCAA [ArgEX 4 #SwitchBubble]', 'MS2 coat protein', 'apparent KD of MS2 coat protein', 147),
  ('UUUGCACAUGAGGAUCACCCAUGUACAGAUACCAGCCUCAUCUACGGCCCUUGGCAGCUGAGACAAUGGUGACAUGAUGGGCUUU [Istein]', 'MS2 coat protein', 'apparent KD of MS2 coat protein', 12.3),
  ('AAGACUGGACAUAAGUCCAGUCAACCUGAAGGAGCGGGUGGGUGCCCAGGUAGGUCGCGGGAACAUGAGGAUCACCCAUGUAUAA [ArgAS 5 #BothOrNeither #OpenEnded]', 'MS2 coat protein', 'apparent KD of MS2 coat protein', 24.6),
  ('GAUGCACAUGAGGAUCACCCAUGUCCUGAUACCAGAACGCGACUUUUCCCUUGGCAGCAGAAUUCACUUUUUUACAUUCAUACUG [theeternabot_sameState_MS2_Theo_A_11]', 'MS2 coat protein', 'apparent KD of MS2 coat protein', 27),
  ('ACAUGAGGAUCACCCAUGUAUGACUAUCCUCGAGGACCGGUACGGCCGCCACUCGAAGGAGUGGCUCGCGAGUGCGCACUUGCGA [5'' end]', 'MS2 coat protein', 'apparent KD of MS2 coat protein', 12.1),
  ('GCUGUAAGUGCAGAUACCAGCAGGUGAUAUUUCAUAUGACAUGAGGAUCACCCAUGUAACUGCCCUUGGCAGCUGCACUUACAGC [SSTHB #9]', 'MS2 coat protein', 'apparent KD of MS2 coat protein', 523),
  ('ACAUGGGUCUGAAGGAGCGCGAUAACAUGAGGAUCACCCAUGUAAAAUGGAACAUGAUAAUCGCAGGUAGGUCGCAGUAAAACCC [Same State Arginine B GF 11]', 'MS2 coat protein', 'apparent KD of MS2 coat protein', 365),
  ('ACAUGAGGAUCACCCAUGUCAGGGCACGAUACCAGCUGAUCCGGUGGCCCUUGGCAGCGUGACGUGUGGUCAUGAGGAUCACCCG [wsmullin]', 'MS2 coat protein', 'apparent KD of MS2 coat protein', 464),
  ('GAGCUGAUGUAGAGAUUUUAUUUCUGAGAUACCAGUACAGAAAUGUACCCUUGGCAGCUCAGCUUUACAUGAGGAUCACCCAUGU [Ex Theophylline A 16]', 'MS2 coat protein', 'apparent KD of MS2 coat protein', 17.6),
  ('GCCUAGCAUCGAAGGAGCGGGCAUUACGCGCGAAAGCGCGAUACUUGAGGAACACCCAAGUCCCAGGUAGGUCGCGAUGCUAGGC [SSAB Alternative Aptamer #3 NP+V+V2]', 'MS2 coat protein', 'apparent KD of MS2 coat protein', 83.5),
  ('GGUUGGUGUGGAGACAUAUUGAUUACUGAAGGAGCGGGAAUAAACCCAGGUAGGUCGCAGAGAUCCACAUGAGGAUCACCCAUGU [!0.P]', 'MS2 coat protein', 'apparent KD of MS2 coat protein', 22.4),
  ('UAUAUUGUGAUGGAUACCAGCAGAGAAAACGUUUAUCCUAACAUGAGGAUCACCCAUGUAUGCCCUUGGCAGCUGUUGUGGUAUA [8.P]', 'MS2 coat protein', 'apparent KD of MS2 coat protein', 38.6),
  ('CUCCUGGGAGCGGCCGCCACUGGAGGCCUUGCGCGACAUGAGGAUCACCCAUGUUGUCCCGGCCUCAGGACCGGGUUCGCGCGAG [Same State - Tryptophan B Attempt #1]', 'MS2 coat protein', 'apparent KD of MS2 coat protein', 8.67);
